Entries annotated with measured survival
tested on: DeltatarO mutant; assay: S. aureus survival, RN4220 and DeltatarO strains – OD600, teichoic acid synthesis inhibitors, primary screen (AID 463173); details: S. aureus RN4220 wild type/DeltatarO growth, OD600, 18 h, stronger effect = lower value, screened at 18.75 µg/mL (by protocol)
The whole screen tested about 52,000 compounds, of which about 4,300 (8.3%) were called active. The list comes from a sample in which actives are over-represented; it also holds close analogues and randomly drawn compounds.
// units = %; emit number, no label

O=c1[nH]c2sc3c(c2c(=O)n1-c1ccccc1)CCCC3	70

// C=CCn1c(SC(C)C)nc2sc3c(c2c1=O)CCCC3 : survival value = 71

// recorded survival for COc1ccc(CNC(=O)c2cnc(N3CCCC3)nc2C)cc1 : 71

Quick note, survival for Cn1c(=O)c(C(=O)NCCN2CCNCC2)c(O)c2ccccc21 landed at 68

The reported survival of the molecule CCc1ccc(S(=O)(=O)c2nnn3c2nc(N2CCC(C(N)=O)CC2)c2cc(Cl)ccc23)cc1 was 69

====

system: DeltatarO mutant; experiment: S. aureus survival, RN4220 and DeltatarO strains – OD600, teichoic acid synthesis inhibitors, primary screen (AID 463173); details: S. aureus RN4220 wild type/DeltatarO growth, OD600, 18 h, screened at 18.75 µg/mL (by protocol)
The whole screen tested about 52,000 compounds, of which about 4,300 (8.3%) were called active. Cut-off read from the data, not from the text of the source: active = survival mostly below about 52% (no sharp cut-off); inactive = mostly above about 56%. The full list was thinned out, with actives kept by preference.
Result category, one only: Y (active), N (inactive)

Please review the following examples before continuing.
Cc1cc(C)c2c(=O)cc(C(=O)Nc3c(C)n(C)n(-c4ccccc4)c3=O)oc2c1	N
Cc1ccc(CN2C(=O)SC(Nc3ccc(Cl)cc3)C2=O)cc1 (stereo unspecified)	Y
Cn1c(-n2cccc2)c(-c2c(-c3ccccc3)[nH]c3c2c(=O)[nH]c(=O)n3C)c(=O)[nH]c1=O	N
COc1ccc(CCNC(=O)c2c(O)nc3c(C)cccn3c2=O)cc1OC	N
CCCC(CCC)C(=O)Nc1ccc(NC(=O)c2ccco2)cc1	N
Cc1ccc(NC(=O)CSc2nc(=O)n(CCCN(C)C)c3c2CCC3)cc1F	N
Cc1ccc(N2C(=O)SC(Nc3ccccc3)C2=O)cc1 (stereo unspecified)	N
CCc1cccc(C)c1NC(=O)CN1CCN(Cc2ccccc2Cl)S1(=O)=O	N
CCOC(=O)c1c(NC(C)=O)sc2c1CCC2	N
Cc1c(C(=O)N2CCCCCC2)c(S(=O)(=O)NCc2ccccc2)c(C)n1C	N

// query // param item: COc1ccccc1N(CC(=O)NC1CCCCC1)C(=O)c1csnn1 ; yields the recorded call
// result N

// query For O=C(CSc1c2c(nc3cc(Cl)ccc13)CCCC2)N1CCN(c2ccccc2)CC1 , what call appears in the results of this test?
// result Y

// query What is the recorded call for this molecule in the test? CCOC(=O)c1c(NC(=O)c2ccccc2C)sc2c1CCCC2
// result Y

// query Which outcome did this test record for the molecule Nc1c(C(=O)Nc2cccc(Cl)c2)sc2nc3c(cc12)CN(Cc1ccccc1)CC3 ?
// result N

// query // outcome(item) with item = COc1ccc(-c2[nH]c3c(c2-c2c(-n4cccc4)n(C)c(=O)[nH]c2=O)c(=O)[nH]c(=O)n3C)cc1F
// result N

====

test system: DeltatarO mutant; test: S. aureus survival, RN4220 and DeltatarO strains – OD600, teichoic acid synthesis inhibitors, primary screen (AID 463173); conditions: S. aureus RN4220 wild type/DeltatarO growth, OD600, 18 h, screened at 18.75 µg/mL (by protocol)
Screen size: about 52,000 compounds; about 4,300 (8.3%) were called active. Cut-off read from the data, not from the text of the source: active = survival mostly below about 52% (no sharp cut-off); inactive = mostly above about 56%. The list comes from a sample in which actives are over-represented; it also holds close analogues and randomly drawn compounds.
I would appreciate it if you answered using one of these outcomes: true = active, false = inactive

COc1cccc(NC(=O)CSc2nc3ccccc3n2C)c1	true

// query Tell me the assay call for CC(=O)N1CCCc2cc(S(=O)(=O)N3CCC(C(=O)Nc4cccc(Cl)c4C)CC3)ccc21 please.
// result false

// query Please share the test call associated with Cn1c(SCC(=O)N2CCCc3ccccc32)nnc1-c1ccccc1N .
// result false

// query Entry COc1ccc(CC(=O)NCC(c2ccc(Cl)cc2)N2CCOCC2)cc1 (stereo not given) : call = ?
// result false

// query Test call for this compound, please: Clc1ccc(NC2CCCCC2)nn1
// result true

====

system: DeltatarO mutant; assay: S. aureus survival, RN4220 and DeltatarO strains – OD600, teichoic acid synthesis inhibitors, primary screen (AID 463173); settings: S. aureus RN4220 wild type/DeltatarO growth, OD600, 18 h, stronger effect = lower value, screened at 18.75 µg/mL (by protocol)
In all, about 52,000 compounds went through this assay and about 4,300 (8.3%) were called active. For the sample, actives were picked, then their nearest neighbours and some compounds at random.
Here the recorded survival is given for each entry.
Form entry: value (%) — number only.

survival reported for this compound COc1ccc(Nc2ncnc3c2nc2n3CCCC2)cc1Cl : 80

Short answer for Cc1cccc(OCCCCn2c(C3CC(=O)N(c4ccc(C)cc4C)C3)nc3ccccc32)c1 (stereo not given) : survival was 47

The compound identified as COc1cccc(-c2noc(COc3cccc(C)c3C)n2)c1 registered its survival at 84

Briefly, survival measured for Cc1ccc(-c2noc(-c3ccc(N4CCC(C)CC4)c([N+](=O)[O-])c3)n2)cc1 : 85

survival for CCc1ccc(OCc2nc(-c3ccc(OC)c(OC)c3)no2)c(Br)c1 is 33

So for CCCNC(=O)c1ccc2nc(CCc3ccccc3)oc2c1 , the logged survival turned out to be 78

What the record says about O=C(NCCc1ccccc1)c1ccc2nc(CCc3ccccc3)oc2c1 : survival is 32

====

test system: DeltatarO mutant; assay: S. aureus survival, RN4220 and DeltatarO strains – OD600, teichoic acid synthesis inhibitors, primary screen (AID 463173); settings: S. aureus RN4220 wild type/DeltatarO growth, OD600, 18 h, stronger effect = lower value, screened at 18.75 µg/mL (by protocol)
Screen size: about 52,000 compounds; about 4,300 (8.3%) were called active. Shown is part of a subset that was picked to be rich in actives.
# strict inequality: survival < 60% yields T, everything else yields F

// query Please determine if Cc1ccc(-n2c(=O)c3c4c(sc3n(CC(=O)Nc3cccc(Cl)c3)c2=O)CCCCC4)cc1C is below 60% in terms of survival.
// result F

// query State whether 60% exceeds survival recorded for COc1ccccc1C(=O)Nc1c(C(=O)Nc2ccccc2F)oc2ccccc12 .
// result T

// query Does CCc1c(C)sc2c1CCN(C(=O)Nc1cc(C)ccc1OC)C2c1ccc(F)cc1 (stereo not given) have survival strictly under 60%?
// result F

// query Threshold test, survival < 60%: COc1ccc(CCNC(=O)Cn2c(=O)n(-c3ccccc3)c(=O)c3c(C)c(C)sc32)cc1OC
// result F

// query Answer whether the compound Cc1ccccc1Cn1c(C)c(CNCc2ccccc2)c(C(=O)O)c1C has survival strictly less than 60%
// result F

// query Is survival of Cc1c(/C=C(\C#N)C(=O)Nc2cccc(Cl)c2)c2ccccc2n1Cc1ccccc1Cl strictly below 60%?
// result F

// query Does the reported survival of COc1ccc(CCNC(=O)Cn2c(=O)n(-c3ccc(C)c(C)c3)c(=O)c3c(C)c(C)sc32)cc1OC stay below 60%?
// result F

// query For O=C(NCCn1cc(SCc2ccccc2Cl)c2ccccc21)c1cccs1 , is the recorded survival below the cut-off of 60%?
// result T

// query Problem: For the compound COc1cc(OC)cc(C(=O)Nc2ccc3nc(N4CCC(C)CC4)cc(C)c3c2)c1 , is survival under 60%?
// result T

// query Problem: For the compound COc1ccc(CCNC(=O)CSc2cn(CCNC(=O)c3ccccc3F)c3ccccc23)cc1OC , is survival under 60%?
// result F

// query Input CCOc1ccc(-n2c(=O)c3c(C)c(C)sc3n(CC(=O)C(C)(C)C)c2=O)cc1 ; condition: survival strictly below 60%. Does it hold?
// result F

====

test system: DeltatarO mutant; experiment: S. aureus survival, RN4220 and DeltatarO strains – OD600, teichoic acid synthesis inhibitors, primary screen (AID 463173); conditions: S. aureus RN4220 wild type/DeltatarO growth, OD600, 18 h, stronger effect = lower value, screened at 18.75 µg/mL (by protocol)
The whole screen tested about 52,000 compounds, of which about 4,300 (8.3%) were called active. For the sample, actives were picked, then their nearest neighbours and some compounds at random.
MEASURE_NAME: survival (%)
Field: numeric (%). Do not append units.

N#CCCn1cc(CO)c(-c2ccccc2)n1	95

// next entry
Per the reported DeltatarO mutant data, COc1ccc(OC)c(-n2c(=O)[nH]c3cc(C(=O)NCCc4ccc(OC)c(OC)c4)ccc3c2=O)c1 has survival of 76
